These data points were gathered from PubChem BioAssay (NCI).

Test system: EKVX NSCLC
procedure_summary: NCI tumour cell line growth inhibition, 48 h
experimental_readout: TGI

>>> result("Cc1cc(N2CCCCC2)nc(N(CCCNc2ccnc3cc(Cl)ccc23)Cc2ccco2)n1")
"11.7 µM"
>>> result("OCC(CN1CCCCC1)(CN1CCCCC1)CN1CCCCC1")
"> 100 µM"
>>> result("Cc1nc2c(n1CCO)C(=O)c1ccccc1C2=O")
"> 100 µM"
>>> result("CC1(c2ccc(F)cc2)CC(c2ccc(F)cc2)=C(C#N)C(=C(C#N)C#N)N1 (configuration not stated)")
"31.5 µM"
>>> result("O=C1/C(=C/c2cccnc2)C(n2cccc2)c2c(Br)sc(Br)c21 (configuration not stated)")
"4.1 µM"
>>> result("COc1cc(/C=C2/C(=O)N(C(=O)OC(C)C)C(Cc3cc(OC)c(OC)c(C)c3OC)C(=O)N2Cc2ccccc2)c(OC)c(C)c1OC (configuration not stated)")
"> 100 µM"
>>> result("Cc1ccc(NC(=O)C(=O)C2C(=O)N(c3ccccc3)N=C2N)cc1C (configuration not stated)")
"> 100 µM"
>>> result("Cc1ccc([N+](=O)[O-])c2c(NCCNC(=O)Cn3ccnc3[N+](=O)[O-])ccnc12")
"> 100 µM"
>>> result("O=C1/C(=C/C=C/c2ccccc2)N=C(c2ccccc2)N1C1Nc2cc3c(cc2S1)NC(N1C(=O)/C(=C/C=C/c2ccccc2)N=C1c1ccccc1)S3 (configuration not stated)")
"> 100 µM"
>>> result("CC(C)(C)NC(C1=CC(C)(C)c2ccccc2C1=O)c1ccccc1 (configuration not stated)")
"4.61 µM"
>>> result("C/C=C(\\C)C(=O)N[C@H]1CC[C@]2(C)C3CC[C@@]4(C)C(CC[C@@H]4C(C)N(C)C)C3CCC2[C@H]1OC(C)=O (some centres not stated)")
"8.62 µM"
>>> result("COc1cc(/C=C2\\[C@H]3c4c(c(OC)c(C)c(OC)c4OC)C[C@@H](C(=O)N2Cc2ccccc2)N3C(=O)OCC(C)C)c(OC)c(C)c1OC")
"> 100 µM"
>>> result("CNC(=O)CN(CC(=O)NC)C(=O)NC")
"> 100 µM"
>>> result("COC(=O)CCC(=O)CC(=O)C1=NS(=O)(=O)c2nc(S(N)(=O)=O)c(Cl)cc2N1")
"> 100 µM"
>>> result("O=C(Nc1ccccc1O)c1cccc(NC2=C(Cl)C(=O)N(Cc3ccccc3)C2=O)c1")
"28.8 µM"
>>> result("CC1C(=O)OC2CC[N+]3(CC(=O)c4ccc(Br)cc4)CC=C(COC(=O)C(C)(O)C1(C)O)C23 (configuration not stated)")
"> 375 µM"
>>> result("C=C1C(=O)O[C@H]2[C@H]1CC/C(COC(=O)CCCCC(=O)OC/C1=C/CC[C@@]3(C)O[C@H]3[C@H]3OC(=O)C(=C)[C@@H]3CC1)=C\\CC[C@@]1(C)O[C@@H]21")
"> 100 µM"
>>> result("COc1ccc(N(CC(=O)NCCC[Te]c2ccccc2)C(=O)c2ccccc2)cc1")
"5.27 µM"
>>> result("O=c1/c(=C/c2cccc([N+](=O)[O-])c2)sc2nc3ccccc3n12")
"> 100 µM"
>>> result("CC(=O)OC1CCN(C(=O)c2ccccc2)CC1CC1(c2cc3ccccc3[nH]2)OCCO1 (configuration not stated)")
"> 100 µM"
>>> result("COc1cc(NS(C)(=O)=O)ccc1Nc1c2ccc(Cl)cc2nc2c(OC)cccc12")
"26.7 µM"
>>> result("CC(=O)O[C@H]1C(=O)[C@@]2(C)[C@H]([C@H](OC(=O)c3ccccc3)[C@]3(O)C[C@H](OC(=O)[C@H](OC(=O)OCCC(O)CO)[C@@H](NC(=O)c4ccccc4)c4ccccc4)C(C)=C1C3(C)C)[C@]1(OC(C)=O)CO[C@@H]1C[C@@H]2O (some centres not stated)")
"> 100 µM"
>>> result("COc1cc(O)cc(/C=C/c2ccc(O)cc2)c1")
"94.1 µM"
>>> result("CCOc1cccc(/C=N/NC(=O)c2ccc(Nc3ccnc(C(F)(F)F)c3)cc2)c1O")
"> 81.8 µM"
>>> result("COc1ccc(CCN2C(=O)C=CC2=O)cc1OC")
"41.1 µM"
>>> result("COc1ccc2c(c1)c(=O)c1ccccc1n2/C=C/C(=O)O")
"> 100 µM"
>>> result("Cc1[nH]c2ccccc2c1C1Cc2ccccc2N1C(=O)/C=C/C=C/c1ccccc1 (configuration not stated)")
"> 100 µM"
>>> result("O=C(O)CN1CCNCCN(CP(=O)(O)O)CC1")
"> 100 µM"
>>> result("Cc1ccc2c(c1)C(=O)/C(=C\\c1ccccc1)CCS2(=O)=O")
"> 100 µM"
>>> result("Cc1c(Cl)ccc2c1NC(=O)C2(O)C(C(=O)c1ccccc1)c1ccccc1 (configuration not stated)")
"> 100 µM"
>>> result("CN(C)c1ccc(-c2cc(=O)c3cc4c(cc3[nH]2)OCO4)cc1")
"> 100 µM"
>>> result("O=C(O)CCCCCCC[C@@H]1S[C@H]1CCCCCCO")
"> 100 µM"
>>> result("COc1cc2c3c(n(CCCCOC(=O)C(F)(F)F)c(=O)c2cc1OC)-c1cc2c(cc1C3=O)OCO2")
"> 100 µM"
>>> result("CSc1c(C(=O)Nc2ccc(Cl)cc2)c(N)nn1-c1ccccc1")
"> 100 µM"
>>> result("Cc1ccc(CC(=O)Nc2ccc(NC(=O)/C=C/NC(=O)/C=C/c3ccc(-c4ccccc4)cc3)cc2C(=O)c2ccccc2)cc1")
"3.58 µM"
>>> result("CS(=O)(=O)NNS(=O)(=O)c1cccc([N+](=O)[O-])c1")
"> 100 µM"
>>> result("C=CCCC(OCOCCOC)c1cc(C)c(O[Si](C)(C)C(C)(C)C)c(C)c1 (configuration not stated)")
"63.5 µM"
